- experimental-details: Acute oral toxicity (LD50) in rats
- Type: in vivo
- condition-summary: rat, in vivo
Where a name gives a salt, the structure may show the parent alone.

molecule: C[C@H](O)[C@H](O)[C@H]1CNc2nc(N)[nH]c(=O)c2N1 [BH4 dihydrochloride]
LD50: > 2000 mg/kg
